Biological target: UniProt:Q08499
Sequence (Q08499 whole entry): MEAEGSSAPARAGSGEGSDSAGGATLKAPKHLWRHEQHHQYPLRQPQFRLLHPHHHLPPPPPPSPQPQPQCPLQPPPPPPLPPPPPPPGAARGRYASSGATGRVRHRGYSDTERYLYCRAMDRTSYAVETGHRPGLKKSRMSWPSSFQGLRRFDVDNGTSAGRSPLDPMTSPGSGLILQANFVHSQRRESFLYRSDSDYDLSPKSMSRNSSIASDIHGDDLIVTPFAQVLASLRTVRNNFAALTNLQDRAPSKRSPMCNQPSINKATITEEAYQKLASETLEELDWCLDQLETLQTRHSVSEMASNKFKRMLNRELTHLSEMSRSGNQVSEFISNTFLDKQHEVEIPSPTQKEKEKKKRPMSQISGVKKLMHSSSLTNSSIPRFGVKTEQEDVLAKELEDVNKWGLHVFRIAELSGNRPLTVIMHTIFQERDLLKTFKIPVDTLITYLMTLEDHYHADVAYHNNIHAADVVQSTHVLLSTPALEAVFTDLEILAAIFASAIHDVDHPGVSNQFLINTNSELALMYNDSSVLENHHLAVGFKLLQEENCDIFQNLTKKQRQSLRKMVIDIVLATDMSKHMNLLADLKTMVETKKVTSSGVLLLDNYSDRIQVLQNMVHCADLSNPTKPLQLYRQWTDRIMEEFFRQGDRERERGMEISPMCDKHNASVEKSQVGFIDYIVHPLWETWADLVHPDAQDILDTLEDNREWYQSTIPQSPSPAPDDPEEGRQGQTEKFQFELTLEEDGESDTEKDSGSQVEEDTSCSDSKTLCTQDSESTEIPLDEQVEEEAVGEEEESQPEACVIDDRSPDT
Assay type: functional
Could you please report measured AC50 for the items listed next?

Query: Return AC50 (reported value) for this molecule: Cc1cccc(Nc2ccncc2S(=O)(=O)NC(=O)NC(C)C)c1 [TORSEMIDE]
Response: > 30 µM

Query: Return AC50 (reported value) for this molecule: CN(C)CCN(Cc1ccccc1)c1ccccn1
Response: > 10 µM

Query: Return AC50 (reported value) for this molecule: CCNC(=O)CCC/C=C\C[C@@H]1[C@@H](/C=C/[C@@H](O)CCc2ccccc2)[C@H](O)C[C@@H]1O
Response: > 30 µM

Query: Return AC50 (reported value) for this molecule: CC(C)/N=c1\cc2n(-c3ccc(Cl)cc3)c3ccccc3nc-2cc1Nc1ccc(Cl)cc1
Response: 17.5 µM

Query: Return AC50 (reported value) for this molecule: CO[C@@H]1[C@@H](OC(N)=O)[C@@H](O)[C@H](Oc2ccc3c(O)c(NC(=O)c4ccc(O)c(CC=C(C)C)c4)c(=O)oc3c2C)OC1(C)C
Response: > 30 µM

Query: Return AC50 (reported value) for this molecule: CC1=C(CC(=O)O)c2cc(F)ccc2/C1=C\c1ccc([S+](C)[O-])cc1 (centres undefined)
Response: > 30 µM

Query: Return AC50 (reported value) for this molecule: N[C@@H](Cc1cc(I)c(Oc2cc(I)c(O)c(I)c2)c(I)c1)C(=O)O
Response: 1.8 µM

Query: Return AC50 (reported value) for this molecule: c1cnc2cc3c(cc2n1)[C@@H]1CNC[C@H]3C1
Response: > 30 µM

Query: Return AC50 (reported value) for this molecule: CN(C)CCOCC(=O)NC12CC3CC(CC(C3)C1)C2
Response: > 30 µM
